Catalogue of binders with associated pKd
# TESTED ON: T1, his-tagged B7-H3 (UniProt Q5ZPR3-2 29-245, limits assumed)
# T1 construct: also called CD276; not shown: His tag
# T1 sequence (looked up): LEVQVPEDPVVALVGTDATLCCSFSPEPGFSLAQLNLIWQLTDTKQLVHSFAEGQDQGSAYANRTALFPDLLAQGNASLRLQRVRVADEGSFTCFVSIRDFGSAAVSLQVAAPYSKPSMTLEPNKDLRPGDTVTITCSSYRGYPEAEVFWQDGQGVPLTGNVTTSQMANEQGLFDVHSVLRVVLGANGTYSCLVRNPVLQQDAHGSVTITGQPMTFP
# ASSAY PROTOCOL: SPR, Carterra LSA; binder captured by anti-human Fc, his-tagged B7-H3 injected
To interpret pKd, take it as minus log10 of a concentration measured in moles per litre.

40511p1.1.H5 scFv-Fc (scFv, V domains shown, Tested as scFv-Fc supernatant) VH: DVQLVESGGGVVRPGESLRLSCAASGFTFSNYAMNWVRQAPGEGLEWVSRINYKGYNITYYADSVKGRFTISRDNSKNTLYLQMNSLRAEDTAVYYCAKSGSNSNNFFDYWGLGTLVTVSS VL: EIVLTQSPGTLSLSPGERATLSCRASQSIRSDLAWYQQKPGQAPRLLIYGAASRATGIPARFSGSGSGTEFTLTISSLQSGDFAVYYCQQYNSWPPLTFGGGTKVEIK
6.91

Recorded pKd (binder 40633p1.1.D11 scFv-Fc (scFv, V domains shown, Tested as scFv-Fc supernatant) VH: EVQLLESGGGLVQPGGSLRLSCAASGFTFRSYAMSWVRQAPGKGLEWVAYIGSSGGTTYYADSVKGRFTISRDNSKNTLYLQMNSLRAEDTAVYYCVKESYYYMDVWGQGTTVTVSS VL: QSVLTQPPSASGTPGQRVTISCSATISNIDINRVSWYQQLPGTAPKLLIFNSQRPSGVPDRFSGSKSGTSASLAISGLQSEDEADYYCATWDDSLNSWVFGGGTKLTVL ): 7.88
